Entry source: ChEMBL document CHEMBL4689842

# Tested on: HEK-293T
# assayMethodText: Incucyte cell viability with HEK293T; further: filed as whole numbers so only -1 and 0 and 1 occur
# Assay type: toxicity, cell-based
# conditionInfo: human, 0 h, 10 µM, compound concentration 10 uM, replicate number 1, timepoint 0 hours
Where a SMILES comes first, the peptide text is derived from it. [ ]: non-standard residue; d: D form. Arg(Me) = CNC(=N)NCCC[C@H](N)C(=O)O; d4Pal = N[C@H](Cc1ccncc1)C(=O)O; azaGly = NNC(=O)O
experimentalReadout: Growth Rate

molecule	resultValue
NC(=O)c1ccc(NC(=O)NCc2cccc(C(=O)Nc3ccc4c(c3)CNCC4)c2)cc1	0
CC(=O)Nc1c(C(C)=O)c(=O)n(C)c2nc(-c3ccc(Cl)cc3Cl)c(-c3ccc(Cl)cc3)cc12	0
Cc1cccc(-c2cnc3occ(-c4ccc(C(=O)O)c(C5CCCC5)c4)c3c2)c1	1
Clc1cccc(-c2nnnn2Cc2cccnc2)c1Cl	1
C=CC(=O)Nc1ccc2ncnc(Nc3ccc(OCc4cccc(F)c4)c(Cl)c3)c2c1.Cc1ccc(S(=O)(=O)O)cc1	0
N[C@H](C(=O)O)c1ccc(C(=O)O)c(C(=O)O)c1	0
C=CC(=O)Nc1cccc(C(=O)Nc2ccc(Nc3cc(-c4[nH]c(SC)nc4C)ccn3)cc2)c1	0
CN(C)C(=O)c1ccc(-c2cc(C(=O)N[C@@H]3CCc4ccccc43)no2)cc1O	1
COc1cccc(OC)c1-c1cc(C(=O)NC2(C(=O)O)C3CC4CC(C3)CC2C4)nn1-c1ccc(C(=O)N(C)CCCN(C)C)cc1C(C)C (stereo not drawn)	1
N#Cc1c(O)nc(SCc2cccc(F)c2F)nc1C1CC1	0
Cc1csc2c(N[C@@H](C)CN3CCN(S(=O)(=O)c4ccc(Cl)c(Cl)c4)CC3)ncnc12	0
Cn1cnc2c(F)c(Nc3ccc(Br)cc3Cl)c(C(=O)NOCCO)cc21	0
CC(=O)OCC(=O)[C@@]1(O)CC[C@H]2[C@@H]3CCC4=CC(=O)CC[C@]4(C)[C@@]3(F)[C@@H](O)C[C@@]21C [FLUDROCORTISONE ACETATE]	0
CNCCN1CCC(OCc2ccccc2)CC1	1
CCCc1nc2c(C)cc(-c3nc4ccccc4n3C)cc2n1Cc1ccc(-c2ccccc2C(=O)O)cc1	0
Cn1cncc1[C@@](O)(COc1ccc(C#N)cc1-c1ccc(OC(F)(F)F)cc1)c1ccc(C#N)cc1	1
CCCCN1CCC(COC(=O)c2cc(Cl)c(N)c3c2OCCO3)CC1.Cl	1
C[C@@H]1CCN(C(=O)CC#N)C[C@@H]1N(C)c1ncnc2[nH]ccc12.O=C(O)CC(O)(CC(=O)O)C(=O)O [TOFACITINIB CITRATE]	1
O=C1NCN(c2ccccc2)C12CCN(CCCOc1ccc(F)cc1)CC2 [SPIRAMIDE]	0
CNc1nc(NCc2ccc(NS(C)(=O)=O)cc2Cl)cc(-c2ccccn2)n1	1
CCOCCn1cc(C(=O)Nc2ccc(-n3nc(-c4cccnc4)cc3C(F)(F)F)cn2)ccc1=O	1
O=C(/C=C/N1C[C@H]2C[C@@H]1CN2c1ccccn1)c1ccccc1O	0
O=C(NCCCC1CCCCC1)c1ccc(CNC(=O)c2cnn(-c3ccccc3)c2C(F)(F)F)cc1	0
CNC(=N)NCCC[C@H](NC(=O)[C@H](CC(C)C)NC(=O)NNC(=O)[C@H](Cc1ccccc1)NC(=O)[C@H](CO)NC(=O)[C@H](CC(N)=O)NC(=O)[C@@H](Cc1ccncc1)NC(=O)[C@H](N)Cc1ccc(O)cc1)C(=O)N[C@@H](Cc1ccccc1)C(N)=O [KISS1-305] (H-[dY][d4Pal]NSF[azaGly]L[Arg(Me)]F-NH2)	0
C[C@H]1CC(=O)Nc2cc(C(=O)NCCC3CC3)ccc2N1C(=O)N1CC2CC2C1 (stereo partly drawn)	0
C[C@@]1(Cc2ccc(C#N)cc2)C(=O)N(c2cc(Cl)cc(Cl)c2)c2ncc(C(=O)NC3(c4nc(C5CCC5)no4)CC3)n21	0
O=C(Nc1cnc(Oc2ccc(F)cc2)nc1)N1CCc2ncccc2[C@@H]1c1ccc(F)cc1	0
O=C(NCCCN1CCOC1=O)c1cnc(NCc2cc(Br)ccc2Br)nc1NC1CCCC1	0
CS(=O)(=O)c1cccc(NC(=O)N(Cc2ccc(C(=O)Nc3nn[nH]n3)cc2)c2ccc(C3CCCCC3)cc2)c1	1
N#Cc1ccc(NC(=O)Nc2ccccc2Br)c2nn[nH]c12	0
Cc1sc2c(c1C)C(c1ccc(Cl)cc1)=N[C@@H](CC(=O)OC(C)(C)C)c1nnc(C)n1-2	0
C[C@H](Cc1cc2c(c(C(N)=O)c1)N(CCCO)CC2)NCCOc1ccccc1OCC(F)(F)F	0
COc1ccc2cc(OCC3(C(=O)O)CN(C(=O)c4ccc(F)cc4)C3)ccc2c1	0

----------
# Test system: HEK-293T
# assayMethodText: Multiplex assay against HEK293T
# Type: toxicity, cell-based
# conditionInfo: human, 24 h, 10 µM, compound concentration 10 uM, replicate 1
Please use class 1 whenever Population Mitotic Cells (%) is not below 30%, and class 0 whenever it is.

>>> df
                                    compound    target  categorylabel
 0  CCN(CC)CCCCNc1ncc2cc(-c3cc(OC)cc(OC)c3)c(NC(=O)NC(C)(C)C)nc2n1  HEK-293T        class 1
 1  Cc1[nH]c(/C=C2\C(=O)Nc3ccc(S(=O)(=O)N(C)c4cccc(Cl)c4)cc32)c(C)c1C(=O)N1CCN(C)CC1  HEK-293T        class 0
 2  C=CC(=O)Nc1cc2c(Nc3ccc(F)c(Cl)c3)ncnc2cc1OCCCN1CCOCC1.Cl.Cl [CANERTINIB DIHYDROCHLORIDE]  HEK-293T        class 1
 3  Cc1nc(-c2cn3c(n2)-c2ccc(-c4cnn(C(C)(C)C(N)=O)c4)cc2OCC3)n(C(C)C)n1  HEK-293T        class 1
 4  CNc1nc(NCc2ccc(NS(C)(=O)=O)cc2Cl)cc(-c2ccccn2)n1  HEK-293T        class 1
 5  CN1CCN(c2ccc(OC(F)(F)F)c(Nc3ncc4c(n3)-c3c(c(C(N)=O)nn3CCO)CC4)c2)CC1  HEK-293T        class 1
 6  Cc1nc(Nc2n[nH]c3c2CN(C(=O)N[C@H](CN(C)C)c2ccccc2)C3(C)C)c2sccc2n1  HEK-293T        class 1
 7  c1cn2cc(-c3ccc4cn[nH]c4c3)nc(Nc3ccc(N4CCOCC4)cc3)c2n1  HEK-293T        class 1
 8  OC1(c2ccc(Cl)cc2)CCN(Cc2c[nH]c3ccccc23)CC1  HEK-293T        class 0
 9  CN1CCN(CCOc2cc(OC3CCOCC3)c3c(Nc4c(Cl)ccc5c4OCO5)ncnc3c2)CC1  HEK-293T        class 0
10  Cc1c(-c2ccc(O)cc2)n(Cc2ccc(OCCN3CCCCCC3)cc2)c2ccc(O)cc12  HEK-293T        class 0
11  C=CC(=O)Nc1ccc2ncnc(Nc3ccc(OCc4cccc(F)c4)c(Cl)c3)c2c1.Cc1ccc(S(=O)(=O)O)cc1  HEK-293T        class 1
12  COc1cc(-n2cnc3cc(-c4ccc(Cl)cc4)sc3c2=O)ccc1OCCN1CCCC1  HEK-293T        class 0
13  Cc1csc2c(N[C@@H](C)CN3CCN(S(=O)(=O)c4ccc(Cl)c(Cl)c4)CC3)ncnc12  HEK-293T        class 0

----------
Entries and their Population Mitotic Cells (%) values follow.
# Test system: U2OS
# assayMethodText: Multiplex assay against U2OS
# Format: toxicity, cell-based
# conditionInfo: human, 24 h, 10 µM, compound concentration 10 uM, replicate 2
experimentalReadout: Population Mitotic Cells (%)

>>> df
                                    compound  unitslabel  resultvalue
 0  Cc1nc(-c2ccc(-c3ccc(C(=O)N4CCc5cc6c(cc54)C4(CCN(C)CC4)CO6)cc3)c(C)c2)no1           %           23
 1  Cc1c(-c2ccc(O)cc2)n(Cc2ccc(OCCN3CCCCCC3)cc2)c2ccc(O)cc12           %           31
 2  Cc1csc2c(N[C@@H](C)CN3CCN(S(=O)(=O)c4ccc(Cl)c(Cl)c4)CC3)ncnc12           %           19
 3  CN(C)C(=O)/C(C#N)=C/c1ccc(-c2nc3cnc4[nH]ccc4c3n2C2CCCCC2)o1           %           55
 4  Cl.N#Cc1ccc2[nH]cc(CCCCN3CCN(c4ccc5oc(C(N)=O)cc5c4)CC3)c2c1 [VILAZODONE HYDROCHLORIDE]           %           24
 5  COc1cc(-n2cnc3cc(-c4ccc(Cl)cc4)sc3c2=O)ccc1OCCN1CCCC1           %           52
 6  COc1ncc(-c2ccc3nccc(-c4ccnnc4)c3c2)cc1NS(=O)(=O)c1ccc(F)cc1F           %           20
 7  COc1cc2nccc(Oc3ccc(NC(=O)Nc4cc(C)on4)c(Cl)c3)c2cc1OC.O           %            7
 8  CN1CCCC(n2nc(Cc3ccc(Cl)cc3)c3ccccc3c2=O)CC1.Cl (centres undefined) [AZELASTINE HYDROCHLORIDE]           %            4
 9  c1cn2cc(-c3ccc4cn[nH]c4c3)nc(Nc3ccc(N4CCOCC4)cc3)c2n1           %           10
10  C[C@@H](NCCCc1cccc(C(F)(F)F)c1)c1cccc2ccccc12.Cl [CINACALCET HYDROCHLORIDE]           %            7
11  CN1CCN(CCOc2cc(OC3CCOCC3)c3c(Nc4c(Cl)ccc5c4OCO5)ncnc3c2)CC1           %           14
12  CC(C)NCC(O)COc1ccc(CCOCC2CC2)cc1.Cl (centres undefined) [BETAXOLOL HYDROCHLORIDE]           %           60
13  CN(C)CC#Cc1ccc(OCCCc2sc(N3CCc4cccc(C(=O)Nc5nc6ccccc6s5)c4C3)nc2C(=O)O)c(F)c1           %           18
14  CCN(CC)CCCCNc1ncc2cc(-c3cc(OC)cc(OC)c3)c(NC(=O)NC(C)(C)C)nc2n1           %           54
15  Cn1cc(-c2[nH]c3cc(NC(=O)[C@H](N)C4CCCCC4)cc4c3c2C=NNC4=O)cn1           %           13
16  O=C(NCCN1CCOCC1)c1ccc2c(c1)C(=O)c1ccc(Nc3ccc(F)c(NC(=O)c4ccccc4)c3)cc1CC2           %           50
17  CNc1nc(NCc2ccc(NS(C)(=O)=O)cc2Cl)cc(-c2ccccn2)n1           %           50
18  CN1CCC[C@@H]1CCO[C@](C)(c1ccccc1)c1ccc(Cl)cc1.O=C(O)/C=C/C(=O)O [CLEMASTINE FUMARATE]           %           23
19  C=CC(=O)Nc1cc2c(Nc3ccc(F)c(Cl)c3)ncnc2cc1OCCCN1CCOCC1.Cl.Cl [CANERTINIB DIHYDROCHLORIDE]           %           57
20  OC1(c2ccc(Cl)cc2)CCN(Cc2c[nH]c3ccccc23)CC1           %           33
21  COc1cccc([C@@H](C)NCCCc2ccccc2Cl)c1.Cl [TECALCET HYDROCHLORIDE]           %           64
22  Cc1nc(Nc2n[nH]c3c2CN(C(=O)N[C@H](CN(C)C)c2ccccc2)C3(C)C)c2sccc2n1           %           14
23  CN(C)C(=O)N[C@H]1CC[C@H](CCN2CCN(c3cccc(Cl)c3Cl)CC2)CC1.Cl [CARIPRAZINE HYDROCHLORIDE]           %            5
